Multiple publications report pIC50 for Macrophage colony-stimulating factor 1 receptor (Homo sapiens); what follows is a combined list.
pIC50: −log10 of the molar value.

[[record]]
molecule = "Cc1cc(-c2c(-c3ccccc3)c3ncccc3[nH]c2=O)on1"
measured_endpoint = "pIC50"
result = "< 4.70"

[[record]]
molecule = "O=C(c1c(F)ccc(NS(=O)(=O)N2CCOCC2)c1F)c1c[nH]c2ncncc12"
measured_endpoint = "pIC50"
result = "≥ 5.00"

[[record]]
molecule = "Cc1cc(OCCN(C)C)c2oc3cc(Oc4ccc(CCC(=O)N5CCCC5)nc4)ccc3c(=O)c2c1"
measured_endpoint = "pIC50"
result = "> 7.00"


*Q* Retrieve pIC50 on Macrophage colony-stimulating factor 1 receptor (Homo sapiens); query CCN1CCN(CC(=O)Nc2cc(Oc3ccc4c(c3)nc(Nc3cc(C(F)(F)F)ccc3F)n4C)ccn2)CC1
Sequence (P07333 whole entry): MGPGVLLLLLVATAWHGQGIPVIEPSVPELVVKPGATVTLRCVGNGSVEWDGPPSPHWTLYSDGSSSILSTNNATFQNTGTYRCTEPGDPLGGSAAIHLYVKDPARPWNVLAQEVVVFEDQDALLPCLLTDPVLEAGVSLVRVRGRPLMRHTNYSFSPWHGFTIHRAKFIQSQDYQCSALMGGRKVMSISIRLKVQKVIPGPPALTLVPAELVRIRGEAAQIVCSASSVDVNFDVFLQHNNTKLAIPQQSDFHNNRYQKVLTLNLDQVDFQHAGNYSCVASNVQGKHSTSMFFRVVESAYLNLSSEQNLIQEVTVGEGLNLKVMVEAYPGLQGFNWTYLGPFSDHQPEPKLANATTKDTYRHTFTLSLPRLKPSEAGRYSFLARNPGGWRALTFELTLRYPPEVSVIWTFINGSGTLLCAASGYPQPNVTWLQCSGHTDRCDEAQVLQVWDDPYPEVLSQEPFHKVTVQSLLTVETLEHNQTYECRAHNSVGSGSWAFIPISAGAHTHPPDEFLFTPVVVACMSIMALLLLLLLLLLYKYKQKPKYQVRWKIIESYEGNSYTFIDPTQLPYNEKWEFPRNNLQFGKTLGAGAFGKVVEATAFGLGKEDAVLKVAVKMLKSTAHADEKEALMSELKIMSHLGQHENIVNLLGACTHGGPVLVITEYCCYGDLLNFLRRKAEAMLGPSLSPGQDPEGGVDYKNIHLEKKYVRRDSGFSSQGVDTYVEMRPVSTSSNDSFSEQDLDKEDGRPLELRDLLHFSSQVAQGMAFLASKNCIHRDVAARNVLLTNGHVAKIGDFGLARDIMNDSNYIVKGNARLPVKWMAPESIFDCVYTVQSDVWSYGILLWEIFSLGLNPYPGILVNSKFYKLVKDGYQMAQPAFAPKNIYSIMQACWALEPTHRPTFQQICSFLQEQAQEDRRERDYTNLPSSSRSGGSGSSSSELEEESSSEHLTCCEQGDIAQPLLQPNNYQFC
*A* > 8.00

*Q* Retrieve pIC50 on Macrophage colony-stimulating factor 1 receptor (Homo sapiens); query CCOc1cccc2cc(C(=O)N3N=C(c4cccnc4)CC3c3ccccc3O)oc12 (stereo not drawn)
*A* < 5.00

*Q* Retrieve pIC50 on Macrophage colony-stimulating factor 1 receptor (Homo sapiens); query COCCOc1ccn2c(-c3ccc4cccc(O[C@H]5CN[C@H](C(=O)OC)C5)c4n3)cnc2c1
*A* < 6.00

*Q* Retrieve pIC50 on Macrophage colony-stimulating factor 1 receptor (Homo sapiens); query COc1cc2c(cc1Cl)C(c1cccc(Cl)c1)=NCC2
*A* < 5.00

*Q* Retrieve pIC50 on Macrophage colony-stimulating factor 1 receptor (Homo sapiens); query COCCOc1ccn2c(-c3ccc4cccc(OCCN)c4n3)cnc2c1
*A* < 6.00
